- Assay info: Stability of pure lycopene isomers in n-hexane during storage at room temperature
- Format: physicochemical
- Protocol conditions: n-hexane, room temperature, absence of light, 1 day
Value type: concentration (% of total isomers) all E

{"Compound smiles": "CC(C)=CCC\\C(C)=C/C=C/C(C)=C/C=C/C(C)=C/C=C/C=C(C)/C=C/C=C(C)/C=C/C=C(\\C)CCC=C(C)C", "Readout value": "2.2 % of total isomers"}
{"Compound smiles": "CC(C)=CCC/C(C)=C/C=C/C(C)=C/C=C/C(C)=C/C=C/C=C(C)/C=C/C=C(C)/C=C/C=C(\\C)CCC=C(C)C", "Readout value": "86.0 % of total isomers"}
{"Compound smiles": "CC(C)=CCC/C(C)=C/C=C/C(C)=C/C=C/C(C)=C\\C=C\\C=C(C)\\C=C\\C=C(C)\\C=C\\C=C(/C)CCC=C(C)C", "Readout value": "42.6 % of total isomers"}
{"Compound smiles": "CC(C)=CCC/C(C)=C/C=C/C(C)=C\\C=C\\C(C)=C\\C=C\\C=C(C)\\C=C\\C=C(C)\\C=C\\C=C(/C)CCC=C(C)C", "Readout value": "5.8 % of total isomers"}

###

- Assay info: Stability of pure lycopene isomers in n-hexane during storage at room temperature
- Type: physicochemical
- Protocol conditions: n-hexane, room temperature, absence of light, 33 days
concentration (% of total isomers) all E reference

{"Compound": "CC(C)=CCC/C(C)=C/C=C/C(C)=C/C=C/C(C)=C\\C=C\\C=C(C)\\C=C\\C=C(C)\\C=C\\C=C(/C)CCC=C(C)C [13-Z lycopene]", "concentration (% of total isomers) all E": "57.0 % of total isomers"}
{"Compound": "CC(C)=CCC\\C(C)=C/C=C/C(C)=C/C=C/C(C)=C/C=C/C=C(C)/C=C/C=C(C)/C=C/C=C(\\C)CCC=C(C)C [5-Z lycopene]", "concentration (% of total isomers) all E": "10.7 % of total isomers"}
{"Compound": "CC(C)=CCC/C(C)=C/C=C/C(C)=C\\C=C\\C(C)=C\\C=C\\C=C(C)\\C=C\\C=C(C)\\C=C\\C=C(/C)CCC=C(C)C [9-Z lycopene]", "concentration (% of total isomers) all E": "9.8 % of total isomers"}
{"Compound": "CC(C)=CCC/C(C)=C/C=C/C(C)=C/C=C/C(C)=C/C=C/C=C(C)/C=C/C=C(C)/C=C/C=C(\\C)CCC=C(C)C [all-E lycopene]", "concentration (% of total isomers) all E": "58.7 % of total isomers"}

###

concentration (% of total isomers) all E reference
- Assay info: Stability of pure lycopene isomers in n-hexane during storage at room temperature
- Format: physicochemical
- Protocol conditions: n-hexane, room temperature, absence of light, 5 days

{"Compound smiles": "CC(C)=CCC\\C(C)=C/C=C/C(C)=C/C=C/C(C)=C/C=C/C=C(C)/C=C/C=C(C)/C=C/C=C(\\C)CCC=C(C)C", "concentration (% of total isomers) all E": "3.9 % of total isomers"}
{"Compound smiles": "CC(C)=CCC/C(C)=C/C=C/C(C)=C/C=C/C(C)=C/C=C/C=C(C)/C=C/C=C(C)/C=C/C=C(\\C)CCC=C(C)C", "concentration (% of total isomers) all E": "69.3 % of total isomers"}
{"Compound smiles": "CC(C)=CCC/C(C)=C/C=C/C(C)=C/C=C/C(C)=C\\C=C\\C=C(C)\\C=C\\C=C(C)\\C=C\\C=C(/C)CCC=C(C)C", "concentration (% of total isomers) all E": "68.9 % of total isomers"}
{"Compound smiles": "CC(C)=CCC/C(C)=C/C=C/C(C)=C\\C=C\\C(C)=C\\C=C\\C=C(C)\\C=C\\C=C(C)\\C=C\\C=C(/C)CCC=C(C)C", "concentration (% of total isomers) all E": "5.6 % of total isomers"}

###

concentration (% of total isomers) all E reference
- Assay info: Stability of pure lycopene isomers in n-hexane during storage at room temperature
- Type: physicochemical
- Protocol conditions: n-hexane, room temperature, absence of light, 2 days

{"Molecule": "CC(C)=CCC\\C(C)=C/C=C/C(C)=C/C=C/C(C)=C/C=C/C=C(C)/C=C/C=C(C)/C=C/C=C(\\C)CCC=C(C)C [5-Z lycopene]", "concentration (% of total isomers) all E": "2.4 % of total isomers"}
{"Molecule": "CC(C)=CCC/C(C)=C/C=C/C(C)=C\\C=C\\C(C)=C\\C=C\\C=C(C)\\C=C\\C=C(C)\\C=C\\C=C(/C)CCC=C(C)C [9-Z lycopene]", "concentration (% of total isomers) all E": "6.0 % of total isomers"}
{"Molecule": "CC(C)=CCC/C(C)=C/C=C/C(C)=C/C=C/C(C)=C/C=C/C=C(C)/C=C/C=C(C)/C=C/C=C(\\C)CCC=C(C)C [all-E lycopene]", "concentration (% of total isomers) all E": "78.4 % of total isomers"}
{"Molecule": "CC(C)=CCC/C(C)=C/C=C/C(C)=C/C=C/C(C)=C\\C=C\\C=C(C)\\C=C\\C=C(C)\\C=C\\C=C(/C)CCC=C(C)C [13-Z lycopene]", "concentration (% of total isomers) all E": "59.8 % of total isomers"}

###

concentration (% of total isomers) 5-Z reference
- Assay info: Stability of pure lycopene isomers in n-hexane during storage at room temperature
- Type: physicochemical
- Protocol conditions: n-hexane, room temperature, absence of light, 0 days
Value type: concentration (% of total isomers) 5-Z

{"Compound": "CC(C)=CCC/C(C)=C/C=C/C(C)=C/C=C/C(C)=C/C=C/C=C(C)/C=C/C=C(C)/C=C/C=C(\\C)CCC=C(C)C [all-E lycopene]", "Readout value": "0.5 % of total isomers"}
{"Compound": "CC(C)=CCC/C(C)=C/C=C/C(C)=C\\C=C\\C(C)=C\\C=C\\C=C(C)\\C=C\\C=C(C)\\C=C\\C=C(/C)CCC=C(C)C [9-Z lycopene]", "Readout value": "1.8 % of total isomers"}
{"Compound": "CC(C)=CCC/C(C)=C/C=C/C(C)=C/C=C/C(C)=C\\C=C\\C=C(C)\\C=C\\C=C(C)\\C=C\\C=C(/C)CCC=C(C)C [13-Z lycopene]", "Readout value": "0 % of total isomers"}
{"Compound": "CC(C)=CCC\\C(C)=C/C=C/C(C)=C/C=C/C(C)=C/C=C/C=C(C)/C=C/C=C(C)/C=C/C=C(\\C)CCC=C(C)C [5-Z lycopene]", "Readout value": "95.5 % of total isomers"}

###

- Assay info: Stability of pure lycopene isomers in n-hexane during storage at room temperature
- Assay type: physicochemical
- Protocol conditions: n-hexane, room temperature, absence of light, 1 day
Value type: concentration (% of total isomers) 5-Z

{"Compound smiles": "CC(C)=CCC\\C(C)=C/C=C/C(C)=C/C=C/C(C)=C/C=C/C=C(C)/C=C/C=C(C)/C=C/C=C(\\C)CCC=C(C)C", "Readout value": "84.3 % of total isomers"}
{"Compound smiles": "CC(C)=CCC/C(C)=C/C=C/C(C)=C\\C=C\\C(C)=C\\C=C\\C=C(C)\\C=C\\C=C(C)\\C=C\\C=C(/C)CCC=C(C)C", "Readout value": "2.1 % of total isomers"}
{"Compound smiles": "CC(C)=CCC/C(C)=C/C=C/C(C)=C/C=C/C(C)=C\\C=C\\C=C(C)\\C=C\\C=C(C)\\C=C\\C=C(/C)CCC=C(C)C", "Readout value": "0 % of total isomers"}
{"Compound smiles": "CC(C)=CCC/C(C)=C/C=C/C(C)=C/C=C/C(C)=C/C=C/C=C(C)/C=C/C=C(C)/C=C/C=C(\\C)CCC=C(C)C", "Readout value": "1.2 % of total isomers"}

###

- Assay info: Stability of pure lycopene isomers in n-hexane during storage at room temperature
- Format: physicochemical
- Protocol conditions: n-hexane, room temperature, absence of light, 2 days
Value type: concentration (% of total isomers) 5-Z

{"Molecule": "CC(C)=CCC/C(C)=C/C=C/C(C)=C\\C=C\\C(C)=C\\C=C\\C=C(C)\\C=C\\C=C(C)\\C=C\\C=C(/C)CCC=C(C)C [9-Z lycopene]", "Readout value": "11.6 % of total isomers"}
{"Molecule": "CC(C)=CCC/C(C)=C/C=C/C(C)=C/C=C/C(C)=C/C=C/C=C(C)/C=C/C=C(C)/C=C/C=C(\\C)CCC=C(C)C [all-E lycopene]", "Readout value": "2.6 % of total isomers"}
{"Molecule": "CC(C)=CCC\\C(C)=C/C=C/C(C)=C/C=C/C(C)=C/C=C/C=C(C)/C=C/C=C(C)/C=C/C=C(\\C)CCC=C(C)C [5-Z lycopene]", "Readout value": "76.9 % of total isomers"}
{"Molecule": "CC(C)=CCC/C(C)=C/C=C/C(C)=C/C=C/C(C)=C\\C=C\\C=C(C)\\C=C\\C=C(C)\\C=C\\C=C(/C)CCC=C(C)C [13-Z lycopene]", "Readout value": "0 % of total isomers"}
